# study_system: UniProt:P31424
# experiment: Antagonist activity at rat mGluR5 expressed in human HEK293A cells assessed as inhibition of glutamate-induced calcium flux relative to glutamate
# Assay type: functional, cell-based
# conditions_used: HEK293-A
molecules and their reported % Glu Max
// units = %; emit number, no label

1. CC(C)C(=O)Nc1cccc(NC(=O)c2cccc(Cl)c2)c1; 26.9
2. O=C(Nc1cccc(NC(=O)c2ccco2)c1)c1cccc(Cl)c1; 49.3

Provide only the value of recorded % Glu Max for COc1ccccc1C(=O)Nc1cccc(NC(=O)c2cccc(F)c2)c1
25.8

Determine its reported % Glu Max: O=C(Nc1ccc(F)cc1)c1cccc(N2C(=O)c3ccccc3C2=O)c1
73

// fetch % Glu Max given entry O=C(NC1CC1)c1cccc(N2C(=O)c3ccccc3C2=O)c1
68

Supply reported % Glu Max belonging to this molecule: COc1ccccc1C(=O)Nc1cccc(NC(=O)c2cccc(C(F)(F)F)c2)c1
26.1

Input O=C(Nc1cccc(Cl)c1)c1cccc(N2C(=O)c3ccccc3C2=O)c1 , output reported % Glu Max.
26.4

Name the recorded % Glu Max of the item COc1ccccc1C(=O)Nc1cccc(NC(=O)c2cccc(Cl)c2)c1 in your answer.
2.6

Provide one value: measured % Glu Max of COc1ccccc1NC(=O)c1cccc(N2C(=O)c3ccccc3C2=O)c1
86

Find the measured % Glu Max of O=C(Nc1cccc(NC(=O)C2CC2)c1)c1cccc(Cl)c1 and report it.
32.3

Return % Glu Max (reported value) for this molecule: COc1cc(NC(=O)c2cccc(N3C(=O)c4ccccc4C3=O)c2)cc(OC)c1
76.2

###

Quick reference for pIC50 among some compounds
# study_system: Metabotropic glutamate receptor 5 (Rattus norvegicus)
# Sequence (P31424 whole entry): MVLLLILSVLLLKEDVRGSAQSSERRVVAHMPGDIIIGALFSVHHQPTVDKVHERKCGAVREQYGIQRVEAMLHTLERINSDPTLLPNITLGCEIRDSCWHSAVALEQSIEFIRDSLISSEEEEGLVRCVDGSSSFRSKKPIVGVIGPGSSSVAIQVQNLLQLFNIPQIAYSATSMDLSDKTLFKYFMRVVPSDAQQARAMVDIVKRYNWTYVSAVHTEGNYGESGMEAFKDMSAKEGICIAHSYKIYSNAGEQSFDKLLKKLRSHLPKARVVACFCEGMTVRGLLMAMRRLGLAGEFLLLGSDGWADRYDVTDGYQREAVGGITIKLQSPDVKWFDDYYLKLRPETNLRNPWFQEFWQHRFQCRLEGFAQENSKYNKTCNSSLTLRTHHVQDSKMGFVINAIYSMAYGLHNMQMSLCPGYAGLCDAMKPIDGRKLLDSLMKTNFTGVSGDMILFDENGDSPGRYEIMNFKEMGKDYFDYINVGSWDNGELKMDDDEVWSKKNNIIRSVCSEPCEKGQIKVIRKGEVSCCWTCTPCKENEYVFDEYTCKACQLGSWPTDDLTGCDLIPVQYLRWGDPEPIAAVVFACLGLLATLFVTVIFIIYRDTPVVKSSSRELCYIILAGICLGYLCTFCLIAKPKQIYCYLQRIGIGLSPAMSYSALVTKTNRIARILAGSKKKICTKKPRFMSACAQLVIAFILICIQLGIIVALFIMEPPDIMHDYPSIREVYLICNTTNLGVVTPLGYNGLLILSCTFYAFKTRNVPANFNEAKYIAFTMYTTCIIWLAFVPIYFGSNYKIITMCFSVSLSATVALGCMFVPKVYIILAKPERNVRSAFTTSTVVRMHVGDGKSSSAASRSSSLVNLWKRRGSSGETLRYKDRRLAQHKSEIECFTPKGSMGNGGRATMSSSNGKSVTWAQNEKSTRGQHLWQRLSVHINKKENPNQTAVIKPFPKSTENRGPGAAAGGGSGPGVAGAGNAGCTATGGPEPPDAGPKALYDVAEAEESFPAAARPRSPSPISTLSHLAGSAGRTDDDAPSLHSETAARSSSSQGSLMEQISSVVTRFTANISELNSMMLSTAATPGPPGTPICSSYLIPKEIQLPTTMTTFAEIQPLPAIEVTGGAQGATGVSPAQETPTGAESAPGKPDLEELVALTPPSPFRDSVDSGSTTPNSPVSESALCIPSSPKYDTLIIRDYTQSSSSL
# experiment: Antagonist activity at rat mGluR5 expressed in human HEK293A cells assessed as inhibition of glutamate-induced calcium flux
pIC50: −log10 of the molar value.

Answered examples (10):
1) COc1ccccc1C(=O)Nc1cccc(NC(=O)C2CCCC2)c1; < 4.52
2) O=C(Nc1cccc(NC(=O)C23CC4CC(CC(C4)C2)C3)c1)c1cccc(Cl)c1; < 4.52
3) O=C(NC1CC2CCC1C2)c1cccc(N2C(=O)c3ccccc3C2=O)c1 (stereo not drawn); < 4.52
4) COc1ccccc1C(=O)Nc1cccc(NC(=O)c2ccc3c(c2)OCO3)c1; < 4.52
5) O=C(Nc1cccc(NC(=O)C2CCCC2)c1)c1cccc(Cl)c1; < 4.52
6) O=C(Nc1cccc(NC(=O)c2ccc3c(c2)OCO3)c1)c1cccc(Cl)c1; < 4.52
7) COc1ccccc1C(=O)Nc1cccc(NC(=O)C(C)C)c1; < 4.52
8) O=C(Nc1cccc(NC(=O)c2ccccc2Cl)c1)c1cccc(Cl)c1; 5.58
9) COc1ccccc1C(=O)Nc1cccc(NC(=O)c2cccc(C(F)(F)F)c2)c1; 4.97
10) O=C(NC1CC1)c1cccc(N2C(=O)c3ccccc3C2=O)c1; < 4.52

Read off the recorded pIC50 for COc1ccccc1C(=O)Nc1cccc(NC(C)=O)c1
< 4.52

Give pIC50 for COc1ccccc1C(=O)Nc1cccc(NC(=O)C2CC2c2ccccc2)c1 (stereo not drawn)
< 4.52

Could you please provide reported pIC50 for O=C(Nc1cccc(NC(=O)C2CCC2)c1)c1cccc(Cl)c1 ? Thanks!
5.28

Please list pIC50 recorded for the compound O=C(Nc1ccccn1)c1cccc(N2C(=O)c3ccccc3C2=O)c1
5.90

###

# study_system: Metabotropic glutamate receptor 5 (Rattus norvegicus)
# experiment: Antagonist activity at rat mGluR5 expressed in human HEK293A cells assessed as inhibition of glutamate-induced calcium flux
pIC50: −log10 of the molar value.
experimental_readout: pIC50

1) COc1ccccc1C(=O)Nc1cccc(NC(=O)C23CC4CC(CC(C4)C2)C3)c1; < 4.52

# return recorded pIC50 for input CC(=O)Nc1cccc(NC(=O)c2cccc(Cl)c2)c1
5.10

Specify pIC50 for COc1ccccc1C(=O)Nc1cccc(NC(=O)C2CCCCC2)c1 and stop.
< 4.52

Assign pIC50 to the following record: COc1ccccc1C(=O)Nc1cccc(NC(=O)c2ccc(Cl)c(Cl)c2)c1
< 4.52

Specify measured pIC50 for COc1ccccc1C(=O)Nc1cccc(NC(=O)c2ccc(F)cc2)c1 .
< 4.52
